Kindly state melting point for each of the entries shown.

Field: example entries. Status: answers known.
1. O=C(/C=C/c1ccn(S(=O)(=O)c2ccc(-n3cccn3)cc2)c1)NO	160.7 to 166.6 °C
2. Nc1ccccc1NC(=O)C=Cc1ccn(S(=O)(=O)c2ccc(-c3cn[nH]c3)cc2)c1	232.3 to 240.9 °C
3. O=C(/C=C/c1ccn(S(=O)(=O)c2ccc(-c3ccncc3)cc2)c1)NO	219.3 to 221.4 °C
4. NCc1ccc(S(=O)(=O)n2ccc(/C=C/C(=O)NO)c2)cc1	227 to 228.6 °C
5. O=C(/C=C/c1ccn(S(=O)(=O)c2ccc(CN3CCOCC3)cc2)c1)NO	168 to 170 °C

Report melting point for every entry below.
1. Nc1ccccc1NC(=O)/C=C/c1ccn(S(=O)(=O)c2ccc(-c3ccncc3)cc2)c1
2. O=C(/C=C/c1ccn(S(=O)(=O)c2ccc(-c3cn[nH]c3)cc2)c1)NO
3. Nc1ccccc1NC(=O)/C=C/c1ccn(S(=O)(=O)c2ccc(-c3cccnc3)cc2)c1
4. O=C(/C=C/c1ccn(S(=O)(=O)c2cccc(-c3ccccc3)c2)c1)NO

1. 244.2 to 246.5 °C
2. 203.8 to 211.9 °C
3. 199.7 to 202.3 °C
4. 114 to 159.4 °C
